measured on: Androgen receptor (Rattus norvegicus)
Sequence (P15207 whole entry S389L, the tested form may be a part): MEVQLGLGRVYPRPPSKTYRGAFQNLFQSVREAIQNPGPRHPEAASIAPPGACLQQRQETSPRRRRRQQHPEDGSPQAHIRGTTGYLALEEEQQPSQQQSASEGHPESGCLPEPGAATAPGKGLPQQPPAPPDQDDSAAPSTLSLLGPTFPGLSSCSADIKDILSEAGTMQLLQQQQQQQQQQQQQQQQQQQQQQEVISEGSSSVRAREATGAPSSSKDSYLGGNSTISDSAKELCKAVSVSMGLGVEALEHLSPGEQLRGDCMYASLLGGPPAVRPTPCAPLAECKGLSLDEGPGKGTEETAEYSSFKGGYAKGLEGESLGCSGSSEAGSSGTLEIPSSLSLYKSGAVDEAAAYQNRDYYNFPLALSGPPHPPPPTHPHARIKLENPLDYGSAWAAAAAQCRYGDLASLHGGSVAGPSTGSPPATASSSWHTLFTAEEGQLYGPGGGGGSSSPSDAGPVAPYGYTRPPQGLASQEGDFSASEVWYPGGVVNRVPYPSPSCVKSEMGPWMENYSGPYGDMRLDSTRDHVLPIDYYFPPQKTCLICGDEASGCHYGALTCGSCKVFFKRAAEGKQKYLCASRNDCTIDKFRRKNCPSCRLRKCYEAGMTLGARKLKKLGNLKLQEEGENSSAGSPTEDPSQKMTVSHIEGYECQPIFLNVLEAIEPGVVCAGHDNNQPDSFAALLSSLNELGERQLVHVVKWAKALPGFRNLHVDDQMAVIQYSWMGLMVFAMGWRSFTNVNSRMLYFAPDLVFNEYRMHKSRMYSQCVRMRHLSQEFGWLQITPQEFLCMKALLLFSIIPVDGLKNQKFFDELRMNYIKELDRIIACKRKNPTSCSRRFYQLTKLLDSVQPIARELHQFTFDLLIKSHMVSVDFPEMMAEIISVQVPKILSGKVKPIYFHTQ
assay name: Antagonist activity at recombinant GST/His-tagged rat androgen receptor amino-terminal domain by fluorescence polarization assay
readout name: IC50 (µM)
Just the number in µM, nothing appended.

Q: Report value: IC50, system: Androgen receptor (Rattus norvegicus), compound: CC(C)(c1ccc(OCC(O)CO)cc1)c1ccc(OCC(O)CCl)cc1 (stereo unspecified)
Result: 6

Provenance of the data: ChEMBL document CHEMBL4725256
